Data provenance is patent US20210238260.

Molecular target: Factor X (FX), P00742
Sequence (P00742 whole entry, looked up): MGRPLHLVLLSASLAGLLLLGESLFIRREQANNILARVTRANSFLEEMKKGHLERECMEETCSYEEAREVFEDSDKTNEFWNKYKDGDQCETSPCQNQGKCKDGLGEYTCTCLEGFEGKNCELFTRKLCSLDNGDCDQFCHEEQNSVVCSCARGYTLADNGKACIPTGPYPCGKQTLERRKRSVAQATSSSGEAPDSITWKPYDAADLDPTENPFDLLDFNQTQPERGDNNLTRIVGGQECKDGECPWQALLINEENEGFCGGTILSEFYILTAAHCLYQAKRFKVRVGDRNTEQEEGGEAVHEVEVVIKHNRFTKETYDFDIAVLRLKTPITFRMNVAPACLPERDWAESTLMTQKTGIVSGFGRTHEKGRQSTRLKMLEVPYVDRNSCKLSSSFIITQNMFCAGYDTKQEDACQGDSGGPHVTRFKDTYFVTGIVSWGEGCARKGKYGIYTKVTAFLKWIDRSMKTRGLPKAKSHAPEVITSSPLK

# PROTEIN, % of WT kcat/KM / %
measured = [
    ("FIXa variant R318Y/R338E/E410N (protein) chain 1: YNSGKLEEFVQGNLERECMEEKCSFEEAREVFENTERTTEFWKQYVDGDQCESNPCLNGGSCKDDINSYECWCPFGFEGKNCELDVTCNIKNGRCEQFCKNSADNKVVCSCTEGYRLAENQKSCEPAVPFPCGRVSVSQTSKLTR chain 2: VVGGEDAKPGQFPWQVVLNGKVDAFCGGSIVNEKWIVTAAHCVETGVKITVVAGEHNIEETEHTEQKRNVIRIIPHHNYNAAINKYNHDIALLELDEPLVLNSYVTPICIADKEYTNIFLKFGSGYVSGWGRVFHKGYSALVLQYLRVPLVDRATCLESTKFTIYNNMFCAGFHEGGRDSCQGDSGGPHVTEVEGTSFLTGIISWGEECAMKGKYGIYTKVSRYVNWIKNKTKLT", 727),
]
